test: The drug is tested on WLS-098 corresponding to human gut metagenome with ENA study accession number: PRJEB37062 and ENA sample accession number: ERS12561754 for biotransformation under anaerobic condition. The drug concentrations were measured over 9 timepoints collected between 0 and 24 hours of incubation by liquid-chromatography-coupled mass spectrometry (LC–MS); conditions: 2 µM; note: call rule not given here
reportedMetric: Bacterial Biotransformation

compound	reportedMetric	experimentalResult
CC(C(=O)O)c1ccc2c(c1)Cc1cccnc1O2 (centres undefined)	Bacterial Biotransformation	Compound metabolized
O=c1[nH]c2ccccc2n1C1CCN(CCCC(c2ccc(F)cc2)c2ccc(F)cc2)CC1 [PIMOZIDE]	Bacterial Biotransformation	Compound metabolized
N#Cc1ccc(C(c2ccc(C#N)cc2)n2cncn2)cc1	Bacterial Biotransformation	Compound NOT metabolized
Cc1cc2c(cc1S(N)(=O)=O)S(=O)(=O)CCC2	Bacterial Biotransformation	Compound NOT metabolized

====

conditions: human gut metagenome, 24 h, 2 µM

molecule	Bacterial Biotransformation
CCN(CC)CCNC(=O)c1cc(Cl)c(N)cc1OC [METOCLOPRAMIDE]	Compound NOT metabolized
CC(C)c1c(C(=O)Nc2ccccc2)c(-c2ccccc2)c(-c2ccc(F)cc2)n1CC[C@@H](O)C[C@@H](O)CC(=O)O	Compound NOT metabolized
CC(C)(C(=O)O)c1ccc(C(O)CCCN2CCC(C(O)(c3ccccc3)c3ccccc3)CC2)cc1 (stereo unspecified) [FEXOFENADINE]	Compound NOT metabolized
Cc1ccc(-c2cc(C(F)(F)F)nn2-c2ccc(S(N)(=O)=O)cc2)cc1	Compound metabolized
Nc1c2c(nc3ccccc13)CCCC2	Compound NOT metabolized
CN1CCC(=C2c3ccccc3CCc3cccnc32)CC1.O=C(O)/C=C\C(=O)O.O=C(O)/C=C\C(=O)O [AZATADINE MALEATE]	Compound NOT metabolized
CC(C)NCC(O)COc1ccc(CCOCC2CC2)cc1 (stereo unspecified)	Compound NOT metabolized
C[C@@H]1C[C@H]2[C@@H]3CCC4=CC(=O)C=C[C@]4(C)[C@@]3(F)[C@@H](O)C[C@]2(C)[C@@]1(O)C(=O)CO	Compound NOT metabolized
CN(C)CCc1c[nH]c2ccc(Cn3cncn3)cc12.O=C(O)c1ccccc1 [RIZATRIPTAN BENZOATE]	Compound NOT metabolized
CCCCc1nc(Cl)c(CO)n1Cc1ccc(-c2ccccc2-c2nn[nH]n2)cc1	Compound metabolized
CN(C)CCC=C1c2ccccc2C=Cc2ccccc21	Compound metabolized
CN(C)C(=O)C(CCN1CCC(O)(c2ccc(Cl)cc2)CC1)(c1ccccc1)c1ccccc1 [LOPERAMIDE]	Compound metabolized
O=C1[C@H](CC[C@H](O)c2ccc(F)cc2)[C@@H](c2ccc(O)cc2)N1c1ccc(F)cc1	Compound NOT metabolized
COCCc1ccc(OCC(O)CNC(C)C)cc1.COCCc1ccc(OCC(O)CNC(C)C)cc1.O=C(O)C(O)C(O)C(=O)O (stereo unspecified) [METOPROLOL TARTRATE]	Compound NOT metabolized
CCCc1nn(C)c2c(=O)[nH]c(-c3cc(S(=O)(=O)N4CCN(C)CC4)ccc3OCC)nc12.O=C(O)CC(O)(CC(=O)O)C(=O)O [SILDENAFIL CITRATE]	Compound NOT metabolized
CNS(=O)(=O)Cc1ccc2[nH]cc(CCN(C)C)c2c1.O=C(O)CCC(=O)O [SUMATRIPTAN SUCCINATE]	Compound NOT metabolized
CC(=O)O[C@]1(C(C)=O)CC[C@H]2[C@@H]3C=C(Cl)C4=CC(=O)[C@@H]5C[C@@H]5[C@]4(C)[C@H]3CC[C@@]21C [CYPROTERONE ACETATE]	Compound metabolized
CCOC(=O)[C@H](CCc1ccccc1)N[C@@H](C)C(=O)N1[C@H](C(=O)O)C[C@H]2CCCC[C@@H]21	Compound metabolized
COc1ccccc1OCC(O)CN1CCN(CC(=O)Nc2c(C)cccc2C)CC1 (stereo unspecified)	Compound NOT metabolized
CN/C(=N/CCSCc1nc[nH]c1C)NC#N	Compound metabolized
CC(C)NCC(O)c1ccc(NS(C)(=O)=O)cc1 (stereo unspecified)	Compound NOT metabolized
CC(C)c1nc(CN(C)C(=O)N[C@H](C(=O)N[C@@H](Cc2ccccc2)C[C@H](O)[C@H](Cc2ccccc2)NC(=O)OCc2cncs2)C(C)C)cs1	Compound metabolized
CC(=O)CC(c1ccccc1)c1c(O)c2ccccc2oc1=O (stereo unspecified)	Compound metabolized
Cc1cn([C@H]2C[C@H](N=[N+]=[N-])[C@@H](CO)O2)c(=O)[nH]c1=O	Compound NOT metabolized
Nc1nc2ccc(OC(F)(F)F)cc2s1	Compound metabolized
OC(Cn1cncn1)(Cn1cncn1)c1ccc(F)cc1F	Compound metabolized

====

conditions: human gut metagenome, 24 h, 2 µM
reportedMetric: Bacterial Biotransformation

compound	reportedMetric	experimentalResult
CN1CCN(C2=Nc3cc(Cl)ccc3Nc3ccccc32)CC1	Bacterial Biotransformation	Compound metabolized
CCC1(c2ccc(N)cc2)CCC(=O)NC1=O (stereo unspecified) [AMINOGLUTETHIMIDE]	Bacterial Biotransformation	Compound NOT metabolized
CCCc1nc(C(C)(C)O)c(C(=O)OCc2oc(=O)oc2C)n1Cc1ccc(-c2ccccc2-c2nnn[nH]2)cc1	Bacterial Biotransformation	Compound metabolized
CCCc1nc2c(C)cc(-c3nc4ccccc4n3C)cc2n1Cc1ccc(-c2ccccc2C(=O)O)cc1	Bacterial Biotransformation	Compound NOT metabolized
CS(=O)(=O)O.OC(CCN1CCCCC1)(c1ccccc1)c1ccccc1 [PRIDINOL METHANESULFONATE]	Bacterial Biotransformation	Compound metabolized
COC(=O)Nc1nc2ccc(C(=O)c3ccccc3)cc2[nH]1	Bacterial Biotransformation	Compound metabolized
Nc1nc2ccc(OC(F)(F)F)cc2s1	Bacterial Biotransformation	Compound metabolized
CCN(CC)CCOC(=O)C(Cc1cccc2ccccc12)CC1CCCO1.O=C(O)C(=O)O (stereo unspecified) [NAFRONYL OXALATE]	Bacterial Biotransformation	Compound metabolized
COc1ccccc1OCC(O)CN1CCN(CC(=O)Nc2c(C)cccc2C)CC1 (stereo unspecified)	Bacterial Biotransformation	Compound NOT metabolized
CCCCC(=O)N(Cc1ccc(-c2ccccc2-c2nnn[nH]2)cc1)[C@H](C(=O)O)C(C)C	Bacterial Biotransformation	Compound metabolized
CCCCCOC(=O)Nc1nc(=O)n([C@@H]2O[C@H](C)[C@@H](O)[C@H]2O)cc1F	Bacterial Biotransformation	Compound metabolized
CN1C(=O)CCS(=O)(=O)C1c1ccc(Cl)cc1 (stereo unspecified)	Bacterial Biotransformation	Compound NOT metabolized
CN1CCN(CC/C=C2/c3ccccc3Sc3ccc(S(=O)(=O)N(C)C)cc32)CC1	Bacterial Biotransformation	Compound metabolized
CCC(=O)NCC[C@@H]1CCc2ccc3c(c21)CCO3	Bacterial Biotransformation	Compound metabolized
CN(C)CC(c1ccc(O)cc1)C1(O)CCCCC1.O=C(O)CCC(=O)O (stereo unspecified) [DESVENLAFAXINE SUCCINATE]	Bacterial Biotransformation	Compound NOT metabolized
CCN(CC)CCOCCOC(=O)C1(c2ccccc2)CCCC1.O=C(O)CC(O)(CC(=O)O)C(=O)O [CARBETAPENTANE CITRATE]	Bacterial Biotransformation	Compound metabolized
NS(=O)(=O)c1cc2c(cc1Cl)N=C(CSCc1ccccc1)NS2(=O)=O [BENZTHIAZIDE]	Bacterial Biotransformation	Compound NOT metabolized
CCOC(=O)[C@H](CCc1ccccc1)N[C@@H](C)C(=O)N1[C@H](C(=O)O)C[C@H]2CCCC[C@@H]21	Bacterial Biotransformation	Compound metabolized
CN(C(=O)CN(CCO)CC(=O)N(C)C(C)(C)Cc1ccccc1)C(C)(C)Cc1ccccc1	Bacterial Biotransformation	Compound metabolized
CN1CCc2c(c3ccccc3n2Cc2ccccc2)C1.CN1CCc2c(c3ccccc3n2Cc2ccccc2)C1.O=S(=O)(O)c1cccc2c(S(=O)(=O)O)cccc12	Bacterial Biotransformation	Compound NOT metabolized
CN1CC(=O)N2[C@H](c3ccc4c(c3)OCO4)c3[nH]c4ccccc4c3C[C@@H]2C1=O	Bacterial Biotransformation	Compound metabolized

====

assay: The drug is tested on WLS-006 corresponding to human gut metagenome with ENA study accession number: PRJEB37062 and ENA sample accession number: ERS12561741 for biotransformation under anaerobic condition. The drug concentrations were measured over 9 timepoints collected between 0 and 24 hours of incubation by liquid-chromatography-coupled mass spectrometry (LC–MS); details: 2 µM

compound	Bacterial Biotransformation
CN(C)CCc1c[nH]c2ccc(Cn3cncn3)cc12.O=C(O)c1ccccc1 [RIZATRIPTAN BENZOATE]	Compound NOT metabolized
CCCc1nn(C)c2c(=O)[nH]c(-c3cc(S(=O)(=O)N4CCN(C)CC4)ccc3OCC)nc12.O=C(O)CC(O)(CC(=O)O)C(=O)O [SILDENAFIL CITRATE]	Compound metabolized
CN1CCN(C(=O)O[C@H]2c3nccnc3C(=O)N2c2ccc(Cl)cn2)CC1	Compound NOT metabolized
CNC(=C[N+](=O)[O-])NCCSCc1ccc(CN(C)C)o1	Compound metabolized
O=C(O)CCc1nc(-c2ccccc2)c(-c2ccccc2)o1	Compound metabolized
CCCc1nc(C(C)(C)O)c(C(=O)OCc2oc(=O)oc2C)n1Cc1ccc(-c2ccccc2-c2nnn[nH]2)cc1	Compound metabolized
CN(C)CC(c1ccc(O)cc1)C1(O)CCCCC1.O=C(O)CCC(=O)O (stereo not drawn) [DESVENLAFAXINE SUCCINATE]	Compound NOT metabolized
C=CCc1ccccc1OCC(O)CNC(C)C (stereo not drawn)	Compound NOT metabolized
CNC(=C[N+](=O)[O-])NCCSCc1csc(CN(C)C)n1	Compound metabolized
COc1ccc(CCN(C)CCCC(C#N)(c2ccc(OC)c(OC)c2)C(C)C)cc1OC (stereo not drawn)	Compound NOT metabolized
CCc1nn(CCCN2CCN(c3cccc(Cl)c3)CC2)c(=O)n1CCOc1ccccc1	Compound metabolized
O=c1[nH]c2ccccc2n1C1CCN(CCCC(c2ccc(F)cc2)c2ccc(F)cc2)CC1 [PIMOZIDE]	Compound metabolized
OC(CCN1CCCCC1)(c1ccccc1)C1CCCCC1 (stereo not drawn)	Compound metabolized
CNCCC(Oc1ccc(C(F)(F)F)cc1)c1ccccc1 (stereo not drawn)	Compound NOT metabolized
COc1ccc2[nH]c([S+]([O-])Cc3ncc(C)c(OC)c3C)nc2c1 (stereo not drawn)	Compound metabolized
CN1CCOC(c2ccccc2)c2ccccc2C1 (stereo not drawn)	Compound metabolized
CCN(CC)CCNC(=O)c1cc(Cl)c(N)cc1OC [METOCLOPRAMIDE]	Compound NOT metabolized
C[C@@H](CO)NC(=O)[C@@H]1C=C2c3cccc4[nH]cc(c34)C[C@H]2N(C)C1.O=C(O)/C=C\C(=O)O [ERGONOVINE MALEATE]	Compound metabolized

Origin of measurements: ChEMBL document CHEMBL5724914
